- Study system: T1, Chryseobacterium sp-62563 deamidase polypeptide (second polypeptide, deamidase domain), wildtype (Chryseobacterium sp-62563)
- T1 sequence: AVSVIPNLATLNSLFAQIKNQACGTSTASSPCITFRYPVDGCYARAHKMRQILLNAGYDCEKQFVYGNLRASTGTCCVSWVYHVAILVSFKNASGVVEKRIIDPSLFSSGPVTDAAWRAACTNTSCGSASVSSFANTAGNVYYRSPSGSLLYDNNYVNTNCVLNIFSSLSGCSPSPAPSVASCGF
- Protocol description: cell-based or functional assay
Metric name: Leakage activity (%)

Chryseobacterium sp-62563 propeptide F99A (protein) NQDPNLVAKESNETAMKDFGKTVPVGIEKEDGKFKISFMVTAQPYEIKDSKENAAYISMIKTAVENETPIHVFLKANTNEIAKVDKATDDDIRYFKSVATKEVKEENRK; 4

(A) Chryseobacterium sp-62563 propeptide E67P (protein) NQDPNLVAKESNETAMKDFGKTVPVGIEKEDGKFKISFMVTAQPYEIKDSKENAAYISMIKTAVENPTPIHVFLKANTNEIAKVDKATDDDIRYFKSVFTKEVKEENRK
(B) Chryseobacterium sp-62563 propeptide A76P (protein) NQDPNLVAKESNETAMKDFGKTVPVGIEKEDGKFKISFMVTAQPYEIKDSKENAAYISMIKTAVENETPIHVFLKPNTNEIAKVDKATDDDIRYFKSVFTKEVKEENRK
Pick one: A or B . Which one has the lower reported Leakage activity? Pick one and reply with its label. A
(A: 2%, B: 3%)

The values you see were collected from patent US20250215412A1.
